Tgt: T1, Sla1-3, P32790
T1 sequence (P32790 344-424, looked up): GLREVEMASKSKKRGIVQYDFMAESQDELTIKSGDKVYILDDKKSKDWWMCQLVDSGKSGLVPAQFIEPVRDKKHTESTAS
Test method notes: SPOT array
Study conditions: median of control spots 5475
Parameter: SPOT intensity

MKRSRPSRSIPYTTP :: 35

I: RRRRRPHRIERPLSN
II: GTIARPLFLVVLFFI
Query: Problem: Given the entries I and II , determine which has the lower reported SPOT intensity. Label of pick, please.
Response: II
(II: 0, I: 25)

a: LLIRWLILMPLVGSR
b: NQARKPFLLPATELS
c: DLFKPLPEPPTELGR
d: KNRKNLPTIPIRLSG
e: RKNRAPPQRPRFNRE
Query: Order these by SPOT intensity, descending, and give the full ranking. // list labels; follow requested order
Response: e, d, a, b, c

P: QNTPPLPPKPKSPHL
Q: SRYRRPLTLLLLKPF
R: ALFRLSFFFPLDPAY
S: DGNEEKPLLPTRPNK
Query: Order these by SPOT intensity, descending, and give the full ranking. // list labels; follow requested order
Response: R, Q, S, P
(R: 54, Q: 15, S: 5, P: 0)

A: LFMKGTPEFPKSGFS
B: GLRRARYKFPGQQKI
Query: Problem: Given the entries A and B , determine which has the lower reported SPOT intensity. Label of pick, please.
Response: A
(A: 0, B: 50)

Provenance of the data: paper PMC2756588
